Could you please report measured cleaved RNA product abundance for the items listed next?
System: Bacillus subtilis
Experiment: cleaved RNA product abundance (RNA/gDNA barcode ratio) relative to median wild-type variant (ratio to wild type); higher = more accumulation of the downstream cleavage product
Conditions: experiment (reporter, strain, medium): exp 4a: truncated aprE reporter, strain BJT201 with 2% xylose (RNase J1 expressed); cleavage site: cggR-gapA (positions -7 to +36 mutated)

Hello, please tell me recorded cleaved RNA product abundance for this one: ACAGACGAAGGAGCCGCAAAGAAGTTATTAATTGATGAATAATCCCTCAATATAAATATCTCTCACTTATTTAAA 0.0964

Kindly indicate its recorded cleaved RNA product abundance. Item: ACAGACGAAGGAGCCGCAAAGATGTTATTAAGGGATGAATAATTCCTCAATATAAATATCTCTCACTTATTTAAA 0.89

Please indicate cleaved RNA product abundance recorded for ACAGACGAAGGAGCCGCAAAGAAGTTATTAATGGATTAATAATCCCTCAATATAAATATCTCTCACTTATTTAAA 0.242

Provide only the value of recorded cleaved RNA product abundance for ACAGACGAAGGAGCCGCAAAGAAGTTATTAAGGGATGAATAATCCCTCTAGATAAATATCTCTCACTTATTTAAA 0.266

Indicate its recorded cleaved RNA product abundance; the sequence in question is ACAGACGAAGGAGCCGCAAAGAGGTTATTAAGGTATGAATAATCCCTCAATATAAATATCTCTCACTTATTTAAA 0.1

Indicate its recorded cleaved RNA product abundance; the sequence in question is ACAGACGAAGGAGCCGCAAAGAAGCTATTAAGGGATGAATAATCCCTAAATATAAATATCTCTCACTTATTTAAA 0.407

Specify cleaved RNA product abundance for ACAGACGAAGGAGCCGCAAAGAAGTTATTAAGGGATGTGTAATCCCTCAATATAAATATCTCTCACTTATTTAAA and stop. 0.526

---

System: Bacillus subtilis
Test: cleaved RNA product abundance (RNA/gDNA barcode ratio) relative to median wild-type variant (ratio to wild type); higher = more accumulation of the downstream cleavage product
Conditions: experiment (reporter, strain, medium): exp 2b: truncated aprE reporter, strain BJT200; cleavage site: cggR-gapA (positions -7 to +36 mutated)
# cutoff 0.1 applies to cleaved RNA product abundance; >= gives 1.0, < gives 0.0

cleaved RNA product abundance >= 0.1 for ACAGACGAAGGAGCCGCAAAGAAGTTATTAATGGAAGAATAATCCCTCAATATAAATATCTCTCACTTATTTAAA ? 0.0

Does the sequence ACAGACGAAGGAGCCGCAAAGAAATTATTAAGGGATGTATAATCCCTCAATATAAATATCTCTCACTTATTTAAA have recorded cleaved RNA product abundance that is 0.1 or more? 1.0

Assess whether reported cleaved RNA product abundance for ACAGACGAAGGAGCCGCAAAGAAGTTATTAATGGATGAATAATCCCTCAATATAAATGTCTCTCACTTATTTAAA sits at 0.1 or higher. 1.0

Check the entry ACAGACGAAGGAGCCGCAAAGAAGTTATTAAGGGATTAATAACCCCTCAATATAAATATCTCTCACTTATTTAAA : does cleaved RNA product abundance equal or exceed 0.1? 1.0

Entry ACAGACGAAGGAGCCGCAAAGAAGTTATTAAGGTATGAATAATCCCTGAATATAAATATCTCTCACTTATTTAAA : is its cleaved RNA product abundance no less than 0.1? 0.0

Does ACAGACGAAGGAGCCGCAAAGAAGTTATTAAGGACTGAATAATCCCTCAATATAAATATCTCTCACTTATTTAAA have a reported cleaved RNA product abundance of at least 0.1? 0.0

Reported cleaved RNA product abundance reaches at least 0.1 for ACAGACGAAGGAGCCGCAAAGAAGTCATTAAGGGATGAATAATCCGTCAATATAAATATCTCTCACTTATTTAAA ? 1.0

---

Tested on: Bacillus subtilis
Assay: cleaved RNA product abundance (RNA/gDNA barcode ratio) relative to median wild-type variant (ratio to wild type); higher = more accumulation of the downstream cleavage product
Settings: experiment (reporter, strain, medium): exp 8a: truncated aprE reporter, strain BJT201 with 2% xylose (RNase J1 expressed); cleavage site: glnRA (positions -5 to +31 mutated)
# label = label 1 if cleaved RNA product abundance >= 0.5 else label 0

Check if cleaved RNA product abundance >= 0.5 (inclusive). Item: CGACATGTCCCGCTTCTTTCATTATTCCGTTAGCAACTGTTTTGCTATATACATTTACATTTTAAGAGGAGGAAT label 1

Does cleaved RNA product abundance meet or surpass 0.5 for CGACATGTCCCGCTTCTTTCATTAATCCGTTAGCAACTGTTTTGCAATATACATTAACCTTTTAAGAGGAGGAAT ? label 1

Determine whether measured cleaved RNA product abundance meets or exceeds 0.5 for CGACATGTCCCGCTTCTTTCATTAATACGTTAGCAACTGTTTTGCTATATACGTTTACCTTTTAAGAGGAGGAAT label 0

I'd appreciate it if you could say whether CGACATGTCCCGCTTCTTTCATTAATCCGTTAGCAACTGTTTTTCTATATACACTTACCTTTTAAGAGGAGGAAT has cleaved RNA product abundance at least equal to 0.5. label 1

Could you tell me if the measured cleaved RNA product abundance of CGACATGTCCCGCTTCTTTCATTAATCTGTTATCAATTGTTTTGCTATATACATTTACCTTTTAAGAGGAGGAAT reaches 0.5 or more? label 0

Please tell me: is the sequence CGACATGTCCCGCTTCTTTCATTAATCCGTTATCAACTGTTTTGCTATATACATTTAACTTTTAAGAGGAGGAAT at or over 0.5 in terms of cleaved RNA product abundance? label 0

Form field: cleaved RNA product abundance at least 0.5? Entry: CGACATGTCCCGCTTCTTTCATTAAACCGTTAGCAACTGTTTCGCTATATACATTTACCTTTTAAGAGGAGGAAT label 0

Threshold query (cleaved RNA product abundance >= 0.5) on CGACATGTCCCGCTTCTTTCATTAATCCTTTAGCAACTGTTTTGCGATATACATTTACTTTTTAAGAGGAGGAAT label 0

Textbook exercise: given the entry CGACATGTCCCGCTTCTTTCATTACTCCTTTAGCAACTGTTTTGCTATATACATTTACCTTTTAAGAGGAGGAAT , state whether its cleaved RNA product abundance is greater than or equal to 0.5. label 0

Check the entry CGACATGTCCCGCTTCTTTCATTAATCCGTTAGCAACTGTTTTACTATATTCATTTACCTTTTAAGAGGAGGAAT : does cleaved RNA product abundance equal or exceed 0.5? label 0

Is reported cleaved RNA product abundance greater than or equal to 0.5 here: CGACATGTCCCGCTTCTTTCATTAATCCGTTAGCAACTGTTTTCCTATATACATTTACCTTTTAAGAGGAGGAAT label 1

# check: cleaved RNA product abundance of CGACATGTCCCGCTTCTTTCATTAATCAGTTAGCAACTGTTTTGCTATATACATTTACCTTTTAAGAGGAGGAAT is greater than or equal to 0.5 label 1

Assess whether reported cleaved RNA product abundance for CGACATGTCCCGCTTCTTTCATTAATCCGTCAGCAACTGTTTTGCTATATTCATTTACCTTTTAAGAGGAGGAAT sits at 0.5 or higher. label 0

Is reported cleaved RNA product abundance greater than or equal to 0.5 here: CGACATGTCCCGCTTCTTTCATTAAACCGTTAGCAACTGTTTTGCTATATAAATTTACCTTTTAAGAGGAGGAAT label 1

Could you tell me if the measured cleaved RNA product abundance of CGACATGTCCCGCTTCTTTCATTAATCCGTTAACAACTGTTTTGCGATATACATTTACCTTTTAAGAGGAGGAAT reaches 0.5 or more? label 0

---

Tested on: Bacillus subtilis
Test: cleaved RNA product abundance (RNA/gDNA barcode ratio) relative to median wild-type variant (ratio to wild type); higher = more accumulation of the downstream cleavage product
Conditions: experiment (reporter, strain, medium): exp 4a: truncated aprE reporter, strain BJT201 with 2% xylose (RNase J1 expressed); cleavage site: cggR-gapA (positions -7 to +36 mutated)
Returns met if the recorded cleaved RNA product abundance is greater than or equal to 0.3, and not met otherwise.

Item ACAGACGAAGGAGCCGCAAAGAAGTTATTAAGGGGTGAAAAATCCCTCAATATAAATATCTCTCACTTATTTAAA with cleaved RNA product abundance of 0.3 or above? met

For this sequence, is measured cleaved RNA product abundance 0.3 or higher? ACAGACGAAGGAGCCGCAAAGAAGTTATGAAGGGATGAATAATCCCTTAATATAAATATCTCTCACTTATTTAAA met

Has ACAGACGAAGGAGCCGCAAAGAAGTCATTAAGGGATGAATAATCCTTCAATATAAATATCTCTCACTTATTTAAA a recorded cleaved RNA product abundance greater than or equal to 0.3? not met

Could you verify whether the entry ACAGACGAAGGAGCCGCAAAGATGATATTAAGGGATGAATAATCCCTCAATATAAATATCTCTCACTTATTTAAA shows cleaved RNA product abundance of no less than 0.3? met

Please tell me: is the sequence ACAGACGAAGGAGCCGCAAAGAAGTTATTAAGCGATGAATAATCCCTCAATATAAATATCTCTCACTTATTTAAA at or over 0.3 in terms of cleaved RNA product abundance? not met

Dear colleague, could you confirm whether ACAGACGAAGGAGCCGCAAAGAAGTCATTAAGGGATGAAAAATCCCTCAATATAAATATCTCTCACTTATTTAAA has cleaved RNA product abundance at or above 0.3? not met

# check: cleaved RNA product abundance of ACAGACGAAGGAGCCGCAAAGAAGTTAGTAAGGGATGAATAATACCTCAATATAAATATCTCTCACTTATTTAAA is greater than or equal to 0.3 not met

Quick check: does ACAGACGAAGGAGCCGCAAAGAATTTATTAAGGGATGTATAATCCCTCAATATAAATATCTCTCACTTATTTAAA have cleaved RNA product abundance greater than or equal to 0.3? met

Determine whether measured cleaved RNA product abundance meets or exceeds 0.3 for ACAGACGAAGGAGCCGCAAAGAAGTTAATAAGGGACGAATAATCCCTCAATATAAATATCTCTCACTTATTTAAA not met

Does the sequence ACAGACGAAGGAGCCGCAAAGAAGTTATTAAAGGATGAATAATCCCTTAATATAAATATCTCTCACTTATTTAAA have recorded cleaved RNA product abundance that is 0.3 or more? met

Could you tell me if the measured cleaved RNA product abundance of ACAGACGAAGGAGCCGCAAAGAAGTTATTAAGGGATGAATAATCCTTCAATATACATATCTCTCACTTATTTAAA reaches 0.3 or more? met

Quick check: does ACAGACGAAGGAGCCGCAAAGAAGTTATTAAGGGATGGATAATCCGTCAATATAAATATCTCTCACTTATTTAAA have cleaved RNA product abundance greater than or equal to 0.3? not met

hey, is cleaved RNA product abundance for this one >= 0.3? ACAGACGAAGGAGCCGCAAAGAAGTTATGAAGGGATGAATAATCCTTCAATATAAATATCTCTCACTTATTTAAA met

Textbook exercise: given the entry ACAGACGAAGGAGCCGCAAAGAAGTTATTAAGGGATAAAGAATCCCTCAATATAAATATCTCTCACTTATTTAAA , state whether its cleaved RNA product abundance is greater than or equal to 0.3. met

Does cleaved RNA product abundance meet or surpass 0.3 for ACAGACGAAGGAGCCGCAAAGAAGTTATTAAGGGATGAATGATCCTTCAATATAAATATCTCTCACTTATTTAAA ? not met
